B1: Nuclear receptor subfamily 1 group D member 2, residues 103 to 171; numbered along this chain, Q14995 (parent)
chain: CKVCGDVASGFHYGVHACEGCKGFFRRSIQQNIQYKKCLKNENCSIMRMNRNRCQQCRFKKCLSVGMSR

Variants of: B1
assay.details: abundance fitness (aPCA) (normalised: wild type 0, dead -1); higher = more abundant; growth selection in yeast, the domain comes from the species named
assay.setup: Homo sapiens

{"alteration": "R48Y", "abundance fitness": 0.066}
{"alteration": "M67E", "abundance fitness": -0.483}
{"alteration": "K40Q", "abundance fitness": 0.206}
{"alteration": "I33W", "abundance fitness": -0.668}
